Entries and their measured % apo B in medium follow.
tested on: apolipoprotein B (apoB) production; test: apo B secretion into medium of HepG2 cells, competitive ELISA; type: cell-based, human; conditions: percent of control; HepG2, 24 hours, concentration 12.5 μg/mL medium
Remember to follow the number with its unit.

Below: 4 molecules and their reported % apo B in medium.
> print(dat)
                      smiles.representation                   system.under.test    result
1  COc1ccc(-c2oc3c(OC)c(OC)c(OC)c(OC)c3c(=O)c2OC)cc1OC  apolipoprotein B (apoB) production   32 ± 9%
2  COc1ccc(-c2cc(=O)c3c(OC)c(OC)c(OC)c(OC)c3o2)cc1OC  apolipoprotein B (apoB) production   32 ± 6%
3  COc1ccc(-c2cc(=O)c3c(OC)c(OC)c(OC)cc3o2)cc1OC  apolipoprotein B (apoB) production   58 ± 4%
4  COc1ccc(-c2cc(=O)c3c(OC)c(OC)c(OC)cc3o2)cc1  apolipoprotein B (apoB) production  59 ± 13%

Read the next record carefully.
// % apo B in medium value for COc1ccc(-c2cc(=O)c3c(OC)c(OC)c(OC)c(OC)c3o2)cc1 : 19 ± 2%

====

test system: apolipoprotein B (apoB) production; test: apo B secretion into medium of HepG2 cells, competitive ELISA; assay type: cell-based, human; settings: HepG2, 24 hours, concentration 12.5 μg/mL medium
Labelling field: enter true if recorded Apo B μg/mL medium is less than 0.2 μg/mL medium. Enter false if it equals or exceeds that cut-off.

These solved cases illustrate the format of a correct answer.
> print(dat)
                      smiles.representation  category.label
1  COc1ccc(-c2cc(=O)c3c(OC)c(OC)c(OC)cc3o2)cc1           false
2  COc1ccc(-c2cc(=O)c3c(OC)c(OC)c(OC)c(OC)c3o2)cc1            true
3  COc1ccc(-c2cc(=O)c3c(OC)c(OC)c(OC)c(OC)c3o2)cc1OC            true
4  COc1ccc(-c2oc3c(OC)c(OC)c(OC)c(OC)c3c(=O)c2OC)cc1OC            true

Pending compound:
Input line: Here's an entry: COc1ccc(-c2cc(=O)c3c(OC)c(OC)c(OC)cc3o2)cc1OC . Is its Apo B μg/mL medium below 0.2 μg/mL medium?
Output line: false

====

Catalogue of Apo B μg/mL medium readings, one per entry.
system: apolipoprotein B (apoB) production; assay: apo B secretion into medium of HepG2 cells, competitive ELISA; format: cell-based, human; settings: HepG2, 24 hours, concentration 6.25 μg/mL medium
For clarity, give the value followed by its unit.

The compound listed as COc1ccc(-c2cc(=O)c3c(OC)c(OC)c(OC)cc3o2)cc1OC has a reported Apo B μg/mL medium of 0.70 ± 0.13 μg/mL medium

Entry under test: COc1ccc(-c2cc(=O)c3c(OC)c(OC)c(OC)c(OC)c3o2)cc1 . Its Apo B μg/mL medium was 0.055 ± 0.01 μg/mL medium

====

Listing of entries alongside the reported Apo B μg/mL medium.
tested on: apolipoprotein B (apoB) production; assay: apo B secretion into medium of HepG2 cells, competitive ELISA; assay type: cell-based, human; settings: HepG2, 24 hours, concentration 6.25 μg/mL medium
Please reply with the bare figure in μg/mL medium and do not write the unit itself.

Worked examples, 2 compounds total:
> print(dat)
                      smiles.representation  quantitative.result
1  COc1ccc(-c2cc(=O)c3c(OC)c(OC)c(OC)c(OC)c3o2)cc1OC                 0.37
2  COc1ccc(-c2oc3c(OC)c(OC)c(OC)c(OC)c3c(=O)c2OC)cc1OC                0.138

Now take the following compound into account.
Lab note: COc1ccc(-c2cc(=O)c3c(OC)c(OC)c(OC)cc3o2)cc1 gave Apo B μg/mL medium of 0.305
